B1: Far upstream element-binding protein 1, residues 98 to 169; numbered along this chain, Q96AE4 (parent)
chain: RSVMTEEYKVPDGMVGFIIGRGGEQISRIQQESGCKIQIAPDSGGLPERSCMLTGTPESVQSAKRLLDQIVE

- Variants of: B1
- assay-protocol: abundance fitness (aPCA) (normalised: wild type 0, dead -1); higher = more abundant; growth selection in yeast, the domain comes from the species named
- run-parameters: Homo sapiens
// class assignment uses abundance fitness with these ranges: range 1 (below -0.07), range 2 (-0.07 to below -0.03), range 3 (-0.03 or more)

[
  {
    "ordered-residues": "RSVMTEEYKVPDGMVGFIIGRGGEQISRIQQESGCKIQIAPDSGGLPERSCMLDGTPESVQSAKRLLDQIVE [T54D]",
    "classification": "range 1"
  },
  {
    "ordered-residues": "RSVMTEEYKVPDGMVGFIIGRGGEQISRIQQESGCKIQIAPDSGGLIERSCMLTGTPESVQSAKRLLDQIVE [P47I]",
    "classification": "range 2"
  },
  {
    "ordered-residues": "RSVMTEEYKVPDGMVGFIICRGGEQISRIQQESGCKIQIAPDSGGLPERSCMLTGTPESVQSAKRLLDQIVE [G20C]",
    "classification": "range 1"
  },
  {
    "ordered-residues": "RSVMTEEYKVPNGMVGFIIGRGGEQISRIQQESGCKIQIAPDSGGLPERSCMLTGTPESVQSAKRLLDQIVE [D12N]",
    "classification": "range 3"
  },
  {
    "ordered-residues": "RSVMTEEYKVPDGMVGFIIGRGGEQISRIQQESGCKIQIAPDDGGLPERSCMLTGTPESVQSAKRLLDQIVE [S43D]",
    "classification": "range 2"
  },
  {
    "ordered-residues": "RSVNTEEYKVPDGMVGFIIGRGGEQISRIQQESGCKIQIAPDSGGLPERSCMLTGTPESVQSAKRLLDQIVE [M4N]",
    "classification": "range 3"
  },
  {
    "ordered-residues": "RSVMTEEYKVPDGMVGFIIGRGGEQISRIQQESGCKIDIAPDSGGLPERSCMLTGTPESVQSAKRLLDQIVE [Q38D]",
    "classification": "range 2"
  },
  {
    "ordered-residues": "RSVMTEEYKVPDGFVGFIIGRGGEQISRIQQESGCKIQIAPDSGGLPERSCMLTGTPESVQSAKRLLDQIVE [M14F]",
    "classification": "range 3"
  },
  {
    "ordered-residues": "RSVMTEEYKVPDGMVGFIIGRGGEQISRIQQESGCKIQIAPDSGGLPERSCMLTGTPESVQSAKRLLVQIVE [D68V]",
    "classification": "range 1"
  },
  {
    "ordered-residues": "RSVMTEEYKVPDGMVGFIIGRGGEQISRIQQESGCKIQIAPDSGGLPERPCMLTGTPESVQSAKRLLDQIVE [S50P]",
    "classification": "range 2"
  },
  {
    "ordered-residues": "RSVMTEEYKVPDGMVGFIIGRGGEQISRIQQESGCKIAIAPDSGGLPERSCMLTGTPESVQSAKRLLDQIVE [Q38A]",
    "classification": "range 3"
  },
  {
    "ordered-residues": "RSVMTEEYKVPDGMVGFIIGRGGEQISRIQQESGCKIQIAPDSGGLPERSCMLTGTPESVQSAKRLLDVIVE [Q69V]",
    "classification": "range 3"
  },
  {
    "ordered-residues": "RSVDTEEYKVPDGMVGFIIGRGGEQISRIQQESGCKIQIAPDSGGLPERSCMLTGTPESVQSAKRLLDQIVE [M4D]",
    "classification": "range 1"
  },
  {
    "ordered-residues": "RSVMTEEYKVPDGMVGFIIGRGGEQISRIQIESGCKIQIAPDSGGLPERSCMLTGTPESVQSAKRLLDQIVE [Q31I]",
    "classification": "range 2"
  },
  {
    "ordered-residues": "RSVMTEEYKVPDGMVGFIIGRGGEQISRIQQESGCKIQIAPDSGGLPERSCMLTGTPESVQSAKRLLTQIVE [D68T]",
    "classification": "range 2"
  },
  {
    "ordered-residues": "RSVMTEEYKVPDGMVGFIIGRGGEQISRIQQESGCKIQIAPMSGGLPERSCMLTGTPESVQSAKRLLDQIVE [D42M]",
    "classification": "range 1"
  },
  {
    "ordered-residues": "RSVMTEEYKVPDGPVGFIIGRGGEQISRIQQESGCKIQIAPDSGGLPERSCMLTGTPESVQSAKRLLDQIVE [M14P]",
    "classification": "range 1"
  },
  {
    "ordered-residues": "RSVMTEEYKVPDGMVGFIIGRGGEQISRQQQESGCKIQIAPDSGGLPERSCMLTGTPESVQSAKRLLDQIVE [I29Q]",
    "classification": "range 1"
  },
  {
    "ordered-residues": "RSVMTEEYKVPDGMVGFIIGRGGEQISRIQQESGCKIQIAPDSGGNPERSCMLTGTPESVQSAKRLLDQIVE [L46N]",
    "classification": "range 3"
  },
  {
    "ordered-residues": "RSVMTEEYKVPDGMVGFIIGRGGEQIERIQQESGCKIQIAPDSGGLPERSCMLTGTPESVQSAKRLLDQIVE [S27E]",
    "classification": "range 3"
  },
  {
    "ordered-residues": "RSVMTEEYKVPDGMVGFIIGRGGEQISRIQQESGCKIQIAPDSGCLPERSCMLTGTPESVQSAKRLLDQIVE [G45C]",
    "classification": "range 2"
  }
]
